# test_target: PIK3CB (Human)
# method_summary: Cell-Based Assay
# conditions_used: jurkat
value_kind: pIC50
FYI, pIC50 means -log10 of a concentration in mol per litre.

GET /value?item= COC(=O)Nc1ccc(-c2nc(N3CCOCC3)c3cnn(C4CCN(C(=O)OC)CC4)c3n2)cc1 &field=pIC50 returns 5.00

* * *

# test_target: PIK3CA (human), P42336 [I800L]
# Sequence (P42336 whole entry I800L, looked up): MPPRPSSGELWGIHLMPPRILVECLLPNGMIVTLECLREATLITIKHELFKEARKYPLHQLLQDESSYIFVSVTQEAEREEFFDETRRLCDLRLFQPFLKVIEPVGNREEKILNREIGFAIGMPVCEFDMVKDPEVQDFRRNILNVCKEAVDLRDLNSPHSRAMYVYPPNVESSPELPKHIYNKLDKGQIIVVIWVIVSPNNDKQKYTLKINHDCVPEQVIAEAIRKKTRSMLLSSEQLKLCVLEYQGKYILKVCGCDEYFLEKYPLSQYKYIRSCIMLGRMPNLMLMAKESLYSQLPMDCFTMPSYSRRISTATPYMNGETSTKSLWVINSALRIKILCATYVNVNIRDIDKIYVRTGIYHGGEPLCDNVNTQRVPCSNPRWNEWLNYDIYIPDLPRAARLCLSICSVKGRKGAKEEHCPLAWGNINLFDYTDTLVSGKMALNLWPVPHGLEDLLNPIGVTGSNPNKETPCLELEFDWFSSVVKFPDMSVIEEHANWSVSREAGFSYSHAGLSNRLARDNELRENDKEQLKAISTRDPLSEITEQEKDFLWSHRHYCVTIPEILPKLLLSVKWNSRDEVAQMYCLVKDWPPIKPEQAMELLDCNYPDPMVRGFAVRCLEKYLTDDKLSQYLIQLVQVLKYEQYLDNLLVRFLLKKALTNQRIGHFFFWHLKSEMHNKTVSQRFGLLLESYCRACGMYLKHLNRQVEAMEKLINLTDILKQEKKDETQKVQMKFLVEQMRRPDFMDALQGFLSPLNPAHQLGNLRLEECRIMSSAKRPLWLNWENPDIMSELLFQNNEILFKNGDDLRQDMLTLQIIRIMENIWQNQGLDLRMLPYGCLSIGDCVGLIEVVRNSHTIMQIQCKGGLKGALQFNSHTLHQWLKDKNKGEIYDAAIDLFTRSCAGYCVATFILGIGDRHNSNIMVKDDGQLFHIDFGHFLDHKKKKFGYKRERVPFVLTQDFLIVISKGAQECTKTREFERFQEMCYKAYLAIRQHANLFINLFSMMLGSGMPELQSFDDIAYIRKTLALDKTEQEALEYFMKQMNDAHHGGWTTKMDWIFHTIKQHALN
# method_summary: Enzyme Assay
value_kind: pKd
FYI, pKd means -log10 of a concentration in mol per litre.

GET /value?item= COC(=O)Nc1ccc(-c2nc(N3CCOCC3)c3cnn(C4CCN(C(=O)OC)CC4)c3n2)cc1 &field=pKd returns 6.72

* * *

# test_target: UniProt:P42338
# Sequence (P42338 whole entry, looked up): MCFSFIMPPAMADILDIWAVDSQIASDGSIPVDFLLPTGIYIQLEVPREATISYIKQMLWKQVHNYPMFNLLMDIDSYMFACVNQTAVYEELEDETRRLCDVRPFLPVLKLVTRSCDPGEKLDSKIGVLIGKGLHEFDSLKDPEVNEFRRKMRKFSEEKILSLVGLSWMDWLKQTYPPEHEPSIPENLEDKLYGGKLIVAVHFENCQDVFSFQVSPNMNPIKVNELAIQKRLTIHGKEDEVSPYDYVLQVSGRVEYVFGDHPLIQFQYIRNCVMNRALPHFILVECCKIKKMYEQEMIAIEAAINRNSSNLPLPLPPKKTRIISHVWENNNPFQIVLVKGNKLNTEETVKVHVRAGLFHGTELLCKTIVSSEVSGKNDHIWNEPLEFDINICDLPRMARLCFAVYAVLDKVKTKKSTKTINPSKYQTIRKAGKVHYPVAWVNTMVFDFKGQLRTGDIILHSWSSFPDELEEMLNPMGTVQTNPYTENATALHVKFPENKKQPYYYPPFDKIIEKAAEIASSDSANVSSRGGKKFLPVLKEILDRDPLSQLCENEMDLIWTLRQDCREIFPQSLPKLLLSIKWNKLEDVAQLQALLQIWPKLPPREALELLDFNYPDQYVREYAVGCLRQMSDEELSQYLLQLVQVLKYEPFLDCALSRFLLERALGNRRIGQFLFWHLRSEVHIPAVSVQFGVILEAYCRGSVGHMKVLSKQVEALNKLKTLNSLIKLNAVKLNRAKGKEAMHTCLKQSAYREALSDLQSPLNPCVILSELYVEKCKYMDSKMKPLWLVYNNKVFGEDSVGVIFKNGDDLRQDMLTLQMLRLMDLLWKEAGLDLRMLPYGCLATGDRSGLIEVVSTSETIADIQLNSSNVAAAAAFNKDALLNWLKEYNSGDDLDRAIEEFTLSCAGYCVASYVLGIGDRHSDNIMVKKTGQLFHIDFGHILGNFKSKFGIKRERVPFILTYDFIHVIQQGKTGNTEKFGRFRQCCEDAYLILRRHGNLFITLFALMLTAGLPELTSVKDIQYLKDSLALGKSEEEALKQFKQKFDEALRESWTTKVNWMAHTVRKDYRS
# method_summary: Enzyme Assay
value_kind: IC50

GET /value?item= COC(=O)Nc1ccc(-c2nc(N3CCOCC3)c3cnn(C4CCN(C(=O)OC)CC4)c3n2)cc1 &field=IC50 returns > 12 µM

Values compiled from the Kinase Knowledgebase extract (Sharma et al. 2016).
